# Tested on: T. gondii RH strain
# Protocol Notes: Antiparasitic assay: T. gondii RH proliferation in Hs27 cells, [3H]uracil incorporation
# Type: cell-based, Toxoplasma gondii
# Study Conditions: ratio of CC30 (L929) to IC50Tg
# binarize SR (selectivity ratio): threshold 3 inclusive, high side satisfied, low side not satisfied

Problem: I'd appreciate it if you could say whether CCc1nc(N)nc(N)c1-c1ccc(Cl)cc1 [Pyrimethamine (PYR), Pyrimethamine, reference compound] has SR (selectivity ratio) at least equal to 3.
Result: satisfied

Problem: I'd appreciate it if you could say whether O=C(NNC(=S)Nc1ccccc1Cl)C1CCCC1 [Compound 3b] has SR (selectivity ratio) at least equal to 3.
Result: not satisfied

Problem: I'd appreciate it if you could say whether COc1ccccc1NC(=S)NNC(=O)C1CCCC1 [Compound 7b] has SR (selectivity ratio) at least equal to 3.
Result: not satisfied

Problem: I'd appreciate it if you could say whether O=C(NNC(=S)Nc1cccc(I)c1)C1CCCC1 [Compound 6b] has SR (selectivity ratio) at least equal to 3.
Result: not satisfied

Problem: I'd appreciate it if you could say whether O=C(NNC(=S)Nc1cc(F)ccc1F)C1CCCC1 [Compound 9b] has SR (selectivity ratio) at least equal to 3.
Result: not satisfied

Problem: I'd appreciate it if you could say whether O=C(NNC(=S)Nc1ccc([N+](=O)[O-])cc1)C1CCCC1 [Compound 2b] has SR (selectivity ratio) at least equal to 3.
Result: not satisfied

Problem: I'd appreciate it if you could say whether O=C(NNC(=S)Nc1cccc([N+](=O)[O-])c1)C1CCCC1 [Compound 1b] has SR (selectivity ratio) at least equal to 3.
Result: satisfied

Problem: I'd appreciate it if you could say whether COc1cc(Cc2cnc(N)nc2N)cc(OC)c1OC [Trimethoprim (TRI), Trimethoprim, reference compound] has SR (selectivity ratio) at least equal to 3.
Result: not satisfied

Problem: I'd appreciate it if you could say whether Cc1ccc(NC(=S)NNC(=O)C2CCCC2)cc1 [Compound 8b] has SR (selectivity ratio) at least equal to 3.
Result: not satisfied

Problem: I'd appreciate it if you could say whether O=C(NNC(=S)Nc1ccccc1Br)C1CCCC1 [Compound 4b] has SR (selectivity ratio) at least equal to 3.
Result: satisfied

Problem: I'd appreciate it if you could say whether O=C(NNC(=S)Nc1ccccc1I)C1CCCC1 [Compound 5b] has SR (selectivity ratio) at least equal to 3.
Result: not satisfied

Where these numbers come from: paper PMC8174488
